study_target: Adenosine receptor A1 (Gallus gallus)
procedure_text: Binding affinity for Adenosine A1 receptor using [125I]-ABA in chick cerebellar membrane
Format: cell membranes, Cerebellum
measurement_name: pIC50
Would you please state pIC50, meaning minus log10 of the concentration in mol/L, as a bare number?

Query: Sample OC[C@H]1OC(n2cnc3c(Nc4cccc(O)c4)ncnc32)[C@H](O)[C@@H]1O (stereo partly specified) — what was its pIC50?
Response: 7.95

---

study_target: UniProtKB P49892
procedure_text: Displacement of [125I]ABA from adenosine A1 receptor of chick cerebellar membrane
// reported pIC50 for each item listed
Would you please state pIC50, meaning minus log10 of the concentration in mol/L, as a bare number?

Worked cases, pIC50 given:
> print(dat)
                                   compound      study.target  measurement.name  result
1  OC[C@H]1OC(n2cnc3c(Nc4cccc(B(O)O)c4)ncnc32)[C@H](O)[C@@H]1O (stereo partly drawn)  UniProtKB P49892             pIC50    7.38
2  OC[C@H]1O[C@@H](n2cnc3c(NC4CCCCC4)ncnc32)[C@H](O)[C@@H]1O  UniProtKB P49892             pIC50    8.60
3  Nc1cccc(Nc2ncnc3c2ncn3C2O[C@H](CO)[C@@H](O)[C@H]2O)c1 (stereo partly drawn)  UniProtKB P49892             pIC50    7.35
4  OC[C@H]1OC(n2cnc3c(Nc4ccc(I)cc4)ncnc32)[C@H](O)[C@@H]1O (stereo partly drawn)  UniProtKB P49892             pIC50    8.07
5  CCNC(=O)[C@H]1O[C@@H](n2cnc3c(N)ncnc32)[C@H](O)[C@@H]1O  UniProtKB P49892             pIC50    7.77
6  OC[C@H]1O[C@@H](n2cnc3c(Nc4ccccc4)ncnc32)[C@H](O)[C@@H]1O  UniProtKB P49892             pIC50    8.34

Now look at this entry.
Query: Sample CCc1cccc(Nc2ncnc3c2ncn3C2O[C@H](CO)[C@@H](O)[C@H]2O)c1 (stereo partly drawn) — what was its pIC50?
Response: 7.60

---

procedure_text: Relative affinities for adenosine A2 and A1 receptors
measurement_name: Selectivity
Respond with the number and no other words.

> print(dat)
                                   molecule  result
1  OC[C@H]1OC(n2cnc3c(Nc4ccc(F)cc4)ncnc32)[C@H](O)[C@@H]1O (some centres not stated)      65
2  OC[C@H]1OC(n2cnc3c(Nc4cccc(O)c4)ncnc32)[C@H](O)[C@@H]1O (some centres not stated)     690
3  CCc1ccc(Nc2ncnc3c2ncn3C2O[C@H](CO)[C@@H](O)[C@H]2O)cc1 (some centres not stated)      75

Query: Sample "OC[C@H]1O[C@@H](n2cnc3c(Nc4ccccc4)ncnc32)[C@H](O)[C@@H]1O" — what was its Selectivity?
Response: 140

Query: Sample Cc1ccc(Nc2ncnc3c2ncn3C2O[C@H](CO)[C@@H](O)[C@H]2O)cc1 (some centres not stated) — what was its Selectivity?
Response: 110

Query: Sample OC[C@H]1OC(n2cnc3c(Nc4ccc(I)cc4)ncnc32)[C@H](O)[C@@H]1O (some centres not stated) — what was its Selectivity?
Response: 150

Query: Sample OC[C@H]1OC(n2cnc3c(Nc4cccc(F)c4)ncnc32)[C@H](O)[C@@H]1O (some centres not stated) — what was its Selectivity?
Response: 155

---

This section lists IC50 readings for Adenosine A2 receptor (Rattus norvegicus, UniProt P29276+P30543).
Reply numerically in nM, unit not repeated.

Worked cases, IC50 given:
> print(dat)
                                   compound  unit.spec  result
1  OC[C@H]1OC(n2cnc3c(Nc4cccc(O)c4)ncnc32)[C@H](O)[C@@H]1O (stereo partly drawn)         nM    7640
2  Cc1ccc(Nc2ncnc3c2ncn3C2O[C@H](CO)[C@@H](O)[C@H]2O)cc1 (stereo partly drawn)         nM     920
3  OC[C@H]1O[C@@H](n2cnc3c(Nc4ccccc4)ncnc32)[C@H](O)[C@@H]1O         nM     660

Query: Find the measured IC50: item OC[C@H]1OC(n2cnc3c(Nc4cccc(B(O)O)c4)ncnc32)[C@H](O)[C@@H]1O (stereo partly drawn) , target or system Adenosine A2 receptor (Rattus norvegicus, UniProt P29276+P30543).
Response: 9300

Query: Find the measured IC50: item OC[C@H]1OC(n2cnc3c(Nc4ccc(I)cc4)ncnc32)[C@H](O)[C@@H]1O (stereo partly drawn) , target or system Adenosine A2 receptor (Rattus norvegicus, UniProt P29276+P30543).
Response: 1280

Query: Find the measured IC50: item CCc1cccc(Nc2ncnc3c2ncn3C2O[C@H](CO)[C@@H](O)[C@H]2O)c1 (stereo partly drawn) , target or system Adenosine A2 receptor (Rattus norvegicus, UniProt P29276+P30543).
Response: 10200

Query: Find the measured IC50: item CCc1ccc(Nc2ncnc3c2ncn3C2O[C@H](CO)[C@@H](O)[C@H]2O)cc1 (stereo partly drawn) , target or system Adenosine A2 receptor (Rattus norvegicus, UniProt P29276+P30543).
Response: 960

Query: Find the measured IC50: item OC[C@H]1OC(n2cnc3c(Nc4cccc(F)c4)ncnc32)[C@H](O)[C@@H]1O (stereo partly drawn) , target or system Adenosine A2 receptor (Rattus norvegicus, UniProt P29276+P30543).
Response: 1600

---

study_target: Adenosine receptor A1 (Gallus gallus, UniProt P49892)
Sequence (P49892 whole entry): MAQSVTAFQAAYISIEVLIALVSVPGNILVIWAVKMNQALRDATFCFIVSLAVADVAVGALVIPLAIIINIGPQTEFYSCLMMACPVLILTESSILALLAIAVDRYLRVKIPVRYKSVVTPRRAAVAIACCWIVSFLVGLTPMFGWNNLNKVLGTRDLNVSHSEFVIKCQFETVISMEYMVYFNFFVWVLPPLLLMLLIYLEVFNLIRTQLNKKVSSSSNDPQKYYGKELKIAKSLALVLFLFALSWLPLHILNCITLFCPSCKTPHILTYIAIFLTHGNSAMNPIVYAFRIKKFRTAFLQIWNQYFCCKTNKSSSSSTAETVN
procedure_text: Displacement of [125I]ABA from adenosine A1 receptor of chick cerebellar membrane
measurement_name: pIC50
Would you please state pIC50, meaning minus log10 of the concentration in mol/L, as a bare number?

Worked cases, pIC50 given:
> print(dat)
                                   compound  result
1  OC[C@H]1OC(n2cnc3c(Nc4cccc(I)c4)ncnc32)[C@H](O)[C@@H]1O (stereo partly specified)    7.72
2  CCc1ccc(Nc2ncnc3c2ncn3C2O[C@H](CO)[C@@H](O)[C@H]2O)cc1 (stereo partly specified)    7.89
3  OC[C@H]1OC(n2cnc3c(Nc4ccc(F)cc4)ncnc32)[C@H](O)[C@@H]1O (stereo partly specified)    7.88
4  OC[C@H]1OC(n2cnc3c(Nc4cccc(F)c4)ncnc32)[C@H](O)[C@@H]1O (stereo partly specified)    7.99
5  Cc1ccc(Nc2ncnc3c2ncn3C2O[C@H](CO)[C@@H](O)[C@H]2O)cc1 (stereo partly specified)    8.07

Now look at this entry.
Query: Sample "COc1ccc(Nc2ncnc3c2ncn3[C@@H]2O[C@H](CO)[C@@H](O)[C@H]2O)cc1" — what was its pIC50?
Response: 8.19

---

procedure_text: Relative affinities for adenosine A2 and A1 receptors
measurement_name: Selectivity
Respond with the number and no other words.

> print(dat)
                                   compound  measurement.name  result
1  CCc1cccc(Nc2ncnc3c2ncn3C2O[C@H](CO)[C@@H](O)[C@H]2O)c1 (stereo not given in full)       Selectivity     403
2  COc1ccc(Nc2ncnc3c2ncn3[C@@H]2O[C@H](CO)[C@@H](O)[C@H]2O)cc1       Selectivity     275

Query: Sample OC[C@H]1OC(n2cnc3c(Nc4cccc(B(O)O)c4)ncnc32)[C@H](O)[C@@H]1O (stereo not given in full) — what was its Selectivity?
Response: 220

Query: Sample OC[C@H]1OC(n2cnc3c(Nc4cccc(I)c4)ncnc32)[C@H](O)[C@@H]1O (stereo not given in full) — what was its Selectivity?
Response: 620

Query: Sample Nc1cccc(Nc2ncnc3c2ncn3C2O[C@H](CO)[C@@H](O)[C@H]2O)c1 (stereo not given in full) — what was its Selectivity?
Response: 225

meta.source: ChEMBL document CHEMBL1123754
